// data source = patent US12139487B2

IC50 values recorded for BRG-1 (Homo sapiens)
readout: IC50 (nM)

O=C(NCc1cc2nc(N3CCOc4cc(N5C[C@H](F)[C@@H](F)C5)cnc43)ccc2cn1)c1cc(F)c2c(c1)S(=O)(=O)[C@@H](F)CCO2 = 88.2
COc1nc([C@@H](F)CF)ccc1-c1ccc2cnc(CNC(=O)c3cc(F)c4c(c3)S(=O)(=O)[C@@H](F)COC4)cc2n1 = 47.7
O=C(NCc1cc2nc(N3CCOc4cc(N5CC(F)(F)C5)cnc43)ccc2cn1)c1cc(F)c2c(c1)S(=O)(=O)[C@@H](F)CCO2 = 245

1: COc1nc(CC(F)F)ccc1-c1ccc2cnc(CNC(=O)c3cc(F)c4c(c3)S(=O)(=O)[C@@H](F)CCO4)cc2n1
2: C[C@@H]1C[C@H](C)N1c1cnc2c(c1)OCCN2c1ccc2cnc(CNC(=O)c3cc(F)c4c(c3)S(=O)(=O)[C@@H](F)CCO4)cc2n1
Between the two listed entries 1 and 2 , which has its IC50 at the higher number? The response must carry the label of the picked entry. 1
(1: 226 nM, 2: 90.6 nM)

---

- Test system: BRM-dependent transcription (BRG1 mutant lung cancer cell line A549)
- method: BRM-dependent transcription, MMTV luciferase reporter in BRG1 mutant A549 cells
- Format: cell-based
- condition: MMTV luciferase reporter cell lines, selectivity BRG1/BRM, Table 11
readout: Ratio (MDA-MMTV IC50 (μM) divided by A549-MMTV IC50 (μM))

CN(C)c1nccc(-c2ccc3cnc(CNC(=O)c4cc(F)c5c(c4)S(=O)(=O)[C@@H](F)CCO5)cc3n2)n1 = 34.91
O=C(NCc1cc2nc(-c3cnc(OC(F)F)c(C4CC4)n3)ccc2cn1)c1cc(F)c2c(c1)S(=O)(=O)[C@@H](F)CCO2 = 23.16
C[C@H](F)c1ccc(-c2ccc3cnc(CNC(=O)c4cc(F)c5c(c4)S(=O)(=O)[C@@H](F)CCO5)cc3n2)c(OC(F)F)n1 = 26.77
COC1(c2cccc(-c3ccc4cnc(CNC(=O)c5cc(F)c6c(c5)S(=O)(=O)[C@@H](F)CCO6)cc4n3)n2)CC1 = 27.49
COc1nc([C@@H](F)CF)ccc1-c1ccc2cnc(CNC(=O)c3cc(Cl)c4c(c3)S(=O)(=O)[C@@H](F)CCO4)cc2n1 = 40.88
COCCCOc1cnc2c(c1)OCCN2c1ccc2cnc(CNC(=O)c3cc(C(F)F)c4c(c3)S(=O)(=O)[C@@H](F)COC4)cc2n1 = 28.82

---

- assay.system: BRM (Homo sapiens)
- Construct: made in house; host or cells: High Five insect cells
- Sequence (P51531 whole entry): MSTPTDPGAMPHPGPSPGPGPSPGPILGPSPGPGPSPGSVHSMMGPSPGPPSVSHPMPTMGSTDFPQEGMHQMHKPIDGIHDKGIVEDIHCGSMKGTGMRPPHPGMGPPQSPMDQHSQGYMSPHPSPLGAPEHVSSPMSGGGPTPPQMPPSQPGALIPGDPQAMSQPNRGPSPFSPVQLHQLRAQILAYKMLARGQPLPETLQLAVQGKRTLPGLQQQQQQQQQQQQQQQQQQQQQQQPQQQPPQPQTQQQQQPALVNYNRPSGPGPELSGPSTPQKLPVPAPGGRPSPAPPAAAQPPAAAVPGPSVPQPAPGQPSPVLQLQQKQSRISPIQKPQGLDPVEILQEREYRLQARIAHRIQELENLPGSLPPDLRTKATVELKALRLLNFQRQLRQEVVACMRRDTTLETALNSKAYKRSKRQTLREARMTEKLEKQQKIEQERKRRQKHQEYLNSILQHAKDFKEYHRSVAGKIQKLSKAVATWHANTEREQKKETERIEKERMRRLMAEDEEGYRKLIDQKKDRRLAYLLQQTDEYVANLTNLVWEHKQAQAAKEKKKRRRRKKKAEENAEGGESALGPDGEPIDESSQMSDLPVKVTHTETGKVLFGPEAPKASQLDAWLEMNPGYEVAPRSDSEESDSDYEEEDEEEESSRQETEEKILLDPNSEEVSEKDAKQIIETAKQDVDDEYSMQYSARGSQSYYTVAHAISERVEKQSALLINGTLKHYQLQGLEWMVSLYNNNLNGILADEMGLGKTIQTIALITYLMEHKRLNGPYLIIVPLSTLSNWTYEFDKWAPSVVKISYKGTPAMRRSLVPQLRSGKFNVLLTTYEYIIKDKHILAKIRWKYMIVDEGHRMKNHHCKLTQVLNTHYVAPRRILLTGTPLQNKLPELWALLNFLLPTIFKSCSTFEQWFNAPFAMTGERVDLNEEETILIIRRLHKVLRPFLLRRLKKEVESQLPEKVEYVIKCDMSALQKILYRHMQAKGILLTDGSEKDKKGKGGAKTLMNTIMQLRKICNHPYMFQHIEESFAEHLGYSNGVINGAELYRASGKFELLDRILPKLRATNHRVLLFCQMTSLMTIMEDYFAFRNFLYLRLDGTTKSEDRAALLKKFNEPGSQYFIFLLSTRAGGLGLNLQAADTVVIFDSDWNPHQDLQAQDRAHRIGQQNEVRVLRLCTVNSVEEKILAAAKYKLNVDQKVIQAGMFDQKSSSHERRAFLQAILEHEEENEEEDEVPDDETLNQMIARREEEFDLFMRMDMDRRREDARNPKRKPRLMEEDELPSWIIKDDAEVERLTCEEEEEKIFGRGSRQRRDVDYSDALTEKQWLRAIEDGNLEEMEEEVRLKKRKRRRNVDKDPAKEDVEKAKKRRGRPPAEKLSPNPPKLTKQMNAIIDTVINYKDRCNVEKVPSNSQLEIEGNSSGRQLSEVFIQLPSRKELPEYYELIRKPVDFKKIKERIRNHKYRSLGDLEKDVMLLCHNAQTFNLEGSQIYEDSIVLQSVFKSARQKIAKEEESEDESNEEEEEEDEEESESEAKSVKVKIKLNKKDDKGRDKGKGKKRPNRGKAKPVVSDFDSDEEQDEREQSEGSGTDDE
- method: ATPase catalytic activity assay (ADP-Glo), BRM
- Assay type: biochemical
- condition: ATPase assay, selectivity BRG1/BRM, Table 10
readout: Ratio (BRG1 IC50 (μM) divided by BRM IC50 (μM))

Solved cases (5 shown):
O=C(NCc1cc2nc(N3CCOc4cc(C56CC(C5)C6)cnc43)ccc2cn1)c1cc(F)c2c(c1)S(=O)(=O)[C@@H](F)CCO2 = 15.94
CCn1ccc2c(-c3ccc4cnc(CNC(=O)c5cc(F)c6c(c5)S(=O)(=O)[C@@H](F)CCO6)cc4n3)ccnc21 = 13.83
C[C@@H]1CN(c2nccc(-c3ccc4cnc(CNC(=O)c5cc(F)c6c(c5)S(=O)(=O)[C@@H](F)CCO6)cc4c3)n2)C[C@H](C)O1 = 10.27
COc1nc([C@@H](F)CF)ccc1-c1ccc2cnc(CNC(=O)c3cc(F)c4c(c3)S(=O)(=O)[C@@H](F)CCO4)cc2n1 = 15.85
O=C(NCc1cc2nc(-c3ccnc(C45CC(C4)C5)n3)ccc2cn1)c1cc(F)c2c(c1)S(=O)(=O)[C@@H](F)COC2 = 17.27

P: CC#Cc1cnc2c(c1)OCCN2c1ccc2cnc(CNC(=O)c3cc(F)c4c(c3)S(=O)(=O)[C@@H](F)COC4)cc2n1
Q: COc1nc(-c2ccc3cnc(CNC(=O)c4cc(F)c5c(c4)S(=O)(=O)[C@@H](F)CCO5)cc3n2)ccc1C(F)F
R: O=C(NCc1cc2cc(-c3cccc(OC(F)F)n3)ccc2nn1)c1cc(Cl)c2c(c1)S(=O)(=O)[C@@H](F)COC2
Hi! Can you put these in order of Ratio (BRG1 IC50 (μM) divided by BRM IC50 (μM)), lowest number first? Answer format: the labels, in the requested order. P, Q, R
(P: 12.22, Q: 21.43, R: 38.53)
